Inhibition listing for selected compounds.
system: Plasmodium falciparum; test: GSK_TCMDC: Inhibition of Plasmodium falciparum Dd2 in whole red blood cells, using parasite LDH activity as an index of growth. Test compounds present at 2uM; assay type: functional
Could you give me the number in %? Just the number is fine.

[
  {
    "COMPOUND": "CCCCCCCCNCc1c(O)ccc2ccccc12.Cl",
    "UNIT_STRING": "%",
    "Inhibition": 94
  },
  {
    "COMPOUND": "Cc1cccc2nc(-c3cccc(-c4ccc(CNCCCN5CCCC5=O)cc4)c3)[nH]c12.O=C(O)C(F)(F)F",
    "UNIT_STRING": "%",
    "Inhibition": 38
  },
  {
    "COMPOUND": "CC(C(=O)N1CCCC1)N1CCN(S(=O)(=O)c2ccc(C(C)(C)C)cc2)CC1 (centres undefined)",
    "UNIT_STRING": "%",
    "Inhibition": 86
  },
  {
    "COMPOUND": "NCCCNc1nccc(N2CCc3ncnc(Nc4ccc(OCc5cccc(F)c5)c(Cl)c4)c3C2)n1",
    "UNIT_STRING": "%",
    "Inhibition": 93
  },
  {
    "COMPOUND": "COc1c(C2CCN(CCCCNC(=O)c3ccc(-c4ccc(C(=O)C(F)(F)F)cc4)cc3)CC2)ccc2c1CCCC2",
    "UNIT_STRING": "%",
    "Inhibition": 33
  },
  {
    "COMPOUND": "CC(C)[C@H](NC(=O)c1ccc(O)c(-c2ccc(Cl)c(Cl)c2)c1)C(=O)NCCN1CCCCC1",
    "UNIT_STRING": "%",
    "Inhibition": 98
  }
]

Turning now to a further compound:
Reported Inhibition ( COC(=O)c1cccc(CNCc2ccc(-c3ccc(-c4nc5ccccc5[nH]4)s3)cc2)c1.O=C(O)C(F)(F)F ) = 79
